Listed compounds paired with reported Ratio
Target: adenosine A2B receptor (Homo sapiens (Human), UniProt P29275)
Sequence (P29275 whole entry): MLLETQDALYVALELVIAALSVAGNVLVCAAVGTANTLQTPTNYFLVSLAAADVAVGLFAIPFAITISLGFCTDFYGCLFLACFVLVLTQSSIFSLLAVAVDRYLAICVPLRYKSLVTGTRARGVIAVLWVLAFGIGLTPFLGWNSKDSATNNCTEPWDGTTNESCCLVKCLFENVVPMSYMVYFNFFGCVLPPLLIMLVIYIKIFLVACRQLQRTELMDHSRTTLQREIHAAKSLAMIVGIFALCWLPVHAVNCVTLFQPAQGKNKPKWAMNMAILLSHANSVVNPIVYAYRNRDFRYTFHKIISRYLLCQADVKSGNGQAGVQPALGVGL
Test: Adenosine receptor activity assay (Table 1), A2B activity
Type: biochemical
Conditions: A2A activity to A2B activity (A2A/A2B)

A selection of reference data follows.
compound	Ratio
C[C@H](Nc1nc(C(=O)N2CC[C@@H](O)C2)c2sccc2n1)c1cccc(F)c1 [Example Z132]	20.13
Cc1cc2nc(N[C@@H](C)c3cncc(F)c3)nc(C(=O)NC[C@H]3CCOC3)c2s1 [Example Z390]	68.99
O=C(c1nc(NCc2cccc(O)n2)nc2ccsc12)N1CCCC1 [Example Z70]	10.89
C[C@H](Nc1nc(C(=O)N2CCC2)c2sccc2n1)c1ccccn1 [Example Z90]	18.88
C[C@H](Nc1nc(C(=O)N2CC[C@H](F)C2)c2sccc2n1)c1ccccn1 [Example Z53]	7.15
C[C@H](NC(=O)c1nc(N[C@@H](C)c2cccnc2)nc2ccsc12)c1cccnc1 [Example Z1]	0.55
C[C@H](Nc1nc(C(=O)N[C@H]2C[C@H](O)C2)c2sccc2n1)c1ccccn1 [Example Z159]	5.18
C[C@H](Nc1nc(C(=O)N2CC[C@H](O)C2)c2sccc2n1)c1cccc(F)c1 [Example Z129]	22.27
COc1ccc(CNC(=O)c2nc(NCc3cccc(F)c3)nc3ccsc23)cn1 [Example Z82]	1.03
C[C@H](Nc1nc(C(=O)NCCN2CCCC2)c2sccc2n1)c1ccccn1 [Example Z356]	3.31

Query string: Given C[C@H](Nc1nc(C(=O)N[C@H]2CCN(C(=O)OC(C)(C)C)C2)c2sccc2n1)c1ccccn1 [Example Z143] , state its recorded Ratio.
Result string: 0.44

Query string: Given C[C@H](Nc1nc(C(=O)NC[C@@H](C)O)c2sccc2n1)c1ccccn1 [Example Z162] , state its recorded Ratio.
Result string: 5.97

Query string: Given O=C(c1nc(NCc2cnccn2)nc2ccsc12)N1CCC1 [Example Z155] , state its recorded Ratio.
Result string: 18.83

====

Listed compounds paired with reported IC50
Biological target: adenosine A1 receptor (Homo sapiens (Human), UniProt P30542)
Sequence (P30542 whole entry): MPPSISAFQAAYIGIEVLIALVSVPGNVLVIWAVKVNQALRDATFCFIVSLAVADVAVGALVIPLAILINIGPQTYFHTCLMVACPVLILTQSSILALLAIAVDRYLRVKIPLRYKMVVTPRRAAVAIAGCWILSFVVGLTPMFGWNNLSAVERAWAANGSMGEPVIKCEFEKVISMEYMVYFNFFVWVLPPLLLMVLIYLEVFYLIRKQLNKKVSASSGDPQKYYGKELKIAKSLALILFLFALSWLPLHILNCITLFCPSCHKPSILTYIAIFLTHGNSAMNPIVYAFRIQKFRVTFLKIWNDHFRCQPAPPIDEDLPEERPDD
Test: Adenosine receptor activity assay (Table 1), A1 cAMP
Type: cell-based

A selection of reference data follows.
smiles-str	IC50
C[C@H](Nc1nc(C(=O)NCC2CCOCC2)c2sccc2n1)c1cncc(F)c1	> 500 nM
C[C@H](Nc1nc(C(=O)NCCc2ccncc2)c2sccc2n1)c1cncc(F)c1	> 500 nM
Cc1cc2nc(N[C@@H](C)c3cccnc3)nc(C(=O)NC[C@@H](C)O)c2s1	> 500 nM

Query string: Given `C[C@H](Nc1nc(C(=O)NCCO)c2sccc2n1)c1cncc(F)c1` , state its recorded IC50.
Result string: > 500 nM

Query string: Given `Cc1cc2nc(N[C@@H](C)c3ccccn3)nc(C(=O)N3CCC3)c2s1` , state its recorded IC50.
Result string: 50 to 100 nM

Query string: Given `C[C@H](Nc1nc(C(=O)N2CCC[C@H]2C)c2sccc2n1)c1cncc(F)c1` , state its recorded IC50.
Result string: > 500 nM

Query string: Given `C[C@H](Nc1nc(C(=O)N2CC[C@H](O)C2)c2sc(C(F)(F)F)cc2n1)c1cncc(F)c1` , state its recorded IC50.
Result string: > 500 nM

Query string: Given `Cc1cc2nc(N[C@@H](C)c3ccccn3)nc(C(=O)NC3CCC3)c2s1` , state its recorded IC50.
Result string: 50 to 100 nM

Query string: Given `Cc1cc2nc(N[C@@H](C)c3cccnc3)nc(C(=O)N3CCC3)c2s1` , state its recorded IC50.
Result string: > 500 nM

Query string: Given `C[C@H](Nc1nc(C(=O)NCCc2ccc(O)cc2)c2sccc2n1)c1cncc(F)c1` , state its recorded IC50.
Result string: > 500 nM

Query string: Given `C[C@H](Nc1nc(C(=O)N2CCC2)c2sccc2n1)c1cncc(Cl)c1` , state its recorded IC50.
Result string: > 500 nM

Query string: Given `C[C@H](Nc1nc(C(=O)N[C@@H]2CCN(C(=O)OC(C)(C)C)C2)c2sccc2n1)c1ccccn1` , state its recorded IC50.
Result string: > 500 nM

Query string: Given `C[C@H](Nc1nc(C(=O)NC(C)(C)C)c2sccc2n1)c1ccccn1` , state its recorded IC50.
Result string: 50 to 100 nM

Query string: Given `Cc1cc2nc(N[C@@H](C)c3cncc(F)c3)nc(C(=O)NCCc3ccc(O)cc3)c2s1` , state its recorded IC50.
Result string: 50 to 100 nM

Query string: Given `C[C@H](Nc1nc(C(=O)N2CC[C@H](O)C2)c2sc(C(F)(F)F)cc2n1)c1cccnc1` , state its recorded IC50.
Result string: > 500 nM

Query string: Given `Cc1cc2nc(N[C@@H](C)c3cccnc3)nc(C(=O)N3CC[C@@H](O)C3)c2s1` , state its recorded IC50.
Result string: > 500 nM

====

Listed compounds paired with reported Ratio
Molecular target: adenosine A2B receptor (Homo sapiens (Human), UniProt P29275)
Assay: Adenosine receptor activity assay (Table 1), A2B activity
Type: biochemical
Conditions: A2A activity to A2B activity (A2A/A2B)
Lab note: jot the number down without any unit.

A selection of reference data follows.
smiles-str	recorded-number
C[C@H](Nc1nc(C(=O)N2CC[C@H](CO)C2)c2sccc2n1)c1cccnc1	31.95
C[C@H]1CCN(C(=O)c2nc(N[C@@H](C)c3ccccn3)nc3ccsc23)C1	11.70

Query string: Given `Cc1cc2nc(N[C@@H](C)c3ccccn3)nc(C(=O)NC[C@H](C)O)c2s1` , state its recorded Ratio.
Result string: 23.71

Query string: Given `C[C@H](Nc1nc(C(=O)N2CC[C@H](N)C2)c2sccc2n1)c1cncc(F)c1` , state its recorded Ratio.
Result string: 95.57

Query string: Given `CO[C@@H]1CCN(C(=O)c2nc(N[C@@H](C)c3cncc(F)c3)nc3cc(C)sc23)C1` , state its recorded Ratio.
Result string: 35.54

====

Molecular target: adenosine A2B receptor (Homo sapiens (Human), UniProt P29275)
Test: Adenosine receptor activity assay (Table 1), A2B activity
Type: biochemical
Conditions: read-out: Ave A2B cAMP IC50
Listed molecules paired with reported IC50

A selection of reference data follows.
molecule	IC50
C[C@H](Nc1nc(C(=O)NCCc2cccc(Oc3ccccc3)c2)c2sccc2n1)c1cncc(F)c1 [Example Z417]	100 to 500 nM
Cc1cc2nc(N[C@@H](C)c3cncc(F)c3)nc(C(=O)NC[C@@H]3CCOC3)c2s1 [Example Z389]	< 10 nM
C[C@H](Nc1nc(C(=O)NC2CN(C(=O)OC(C)(C)C)C2)c2sccc2n1)c1ccccn1 [Example Z179]	50 to 100 nM
O=C(c1nc(NCc2ccccc2)nc2ccsc12)N1CC[C@H](O)C1 [Example Z40]	100 to 500 nM
CC(CNC(=O)c1nc(N[C@@H](C)c2ccccn2)nc2ccsc12)Oc1cccnc1 (stereo partly drawn) [Example Z77]	100 to 500 nM
C[C@H](Nc1nc(C(=O)NCc2ccc(C(F)(F)F)nc2)c2sccc2n1)c1ccccn1 [Example Z79]	50 to 100 nM
C[C@H](Nc1nc(C(=O)NCc2cncc(C#N)c2)c2sccc2n1)c1cccnc1 [Example Z104]	> 500 nM
C[C@H](Nc1nc(C(=O)N2CC[C@@H](F)C2)c2sccc2n1)c1cncc(F)c1 [Example Z234]	< 10 nM

Query string: Given Cc1cc2nc(N[C@@H](C)c3ccccn3)nc(C(=O)N3CC(CNC(=O)OC(C)(C)C)C3)c2s1 [Example Z476] , state its recorded IC50.
Result string: 10 to 50 nM

====

Target: adenosine A2B receptor (Homo sapiens (Human))
Test: Adenosine receptor activity assay (Table 1), A2B activity
Assay type: biochemical
Details: read-out: Ave A2B cAMP IC50
quantity-measured: IC50

smiles-str	IC50
C[C@H](Nc1nc(C(=O)N2CC[C@@H](O)C2)c2sccc2n1)c1cncc(F)c1	10 to 50 nM

Query string: Given `C[C@H](Nc1nc(C(=O)N2CCC[C@@H]2CO)c2sccc2n1)c1cccnc1` , state its recorded IC50.
Result string: 100 to 500 nM

Query string: Given `C[C@@H]1CCN(C(=O)c2nc(N[C@@H](C)c3ccccn3)nc3cc(N)sc23)C1` , state its recorded IC50.
Result string: 10 to 50 nM

Query string: Given `C[C@H](Nc1nc(C(=O)N2CCC2)c2sccc2n1)c1cncc(F)c1` , state its recorded IC50.
Result string: < 10 nM

====

Listed compounds paired with reported hepatocyte CLint
Test: Hepatocyte (Hep) intrinsic clearance, rat
Format: in vitro ADME
Conditions: hepatocytes
State just the number; it will be interpreted in µL/min/1e6 cells.

A selection of reference data follows.
smiles-str	hepatocyte CLint (µL/min/1e6 cells)
C[C@H](Nc1nc(C(=O)NC[C@@H](C)O)c2sccc2n1)c1cncc(F)c1	23.7
O=C(c1nc(NCc2cccc(Cl)c2)nc2ccsc12)N1CCC1	249
C[C@H](Nc1nc(C(=O)N2CC[C@H](O)C2)c2sccc2n1)c1cccnc1	34.7
C[C@H](Nc1nc(C(=O)N2CCCC2)c2sccc2n1)c1cccc(F)c1	144
O=C(NCCO)c1nc(NCc2cncc(F)c2)nc2ccsc12	22

Query string: Given `C[C@H](Nc1nc(C(=O)N2CCCC2)c2sccc2n1)c1ccccn1` , state its recorded hepatocyte CLint.
Result string: 26.7

Query string: Given `C[C@H](Nc1nc(C(=O)N2CC[C@H](O)C2)c2sccc2n1)c1cncc(F)c1` , state its recorded hepatocyte CLint.
Result string: 14.8

Query string: Given `O=C(c1nc(NCc2cncc(F)c2)nc2ccsc12)N1CCCC1` , state its recorded hepatocyte CLint.
Result string: 71.2

Query string: Given `C[C@H](Nc1nc(C(=O)N2CC[C@H](F)C2)c2sccc2n1)c1ccccn1` , state its recorded hepatocyte CLint.
Result string: 42.7

Query string: Given `O=C(c1nc(NCc2cccc(Cl)c2)nc2ccsc12)N1CC(O)C1` , state its recorded hepatocyte CLint.
Result string: 112

Query string: Given `C[C@H](Nc1nc(C(=O)N2CCC2)c2sccc2n1)c1cncc(F)c1` , state its recorded hepatocyte CLint.
Result string: 34

Query string: Given `C[C@H](Nc1nc(C(=O)N2CCC(F)(F)C2)c2sccc2n1)c1ccccn1` , state its recorded hepatocyte CLint.
Result string: 40.7

Query string: Given `C[C@H](Nc1nc(C(=O)N2CC(O)C2)c2sccc2n1)c1ccccn1` , state its recorded hepatocyte CLint.
Result string: 22.2

The reported numbers originate from patent US11254686B1.
